Source of measurements: ChEMBL document CHEMBL1201862

- Tested on: SK-MEL-2
- Experiment Notes: NCI tumour cell line growth inhibition, 48 h
The source made the active and inactive calls. Cut-off read from the data, not from the text of the source: active = GI50 up to about 1.1 µM and inactive = higher.
Pick from 1 (yes) = active, 0 (no) = inactive when you respond.

CC(C)(C)OC/C=C1\C(=O)O[C@H]2C[C@@H](O[Si](C)(C)C(C)(C)C)C[C@@H]12; 0 (no)
O=C(Nc1ccc(Cl)cc1)c1cccc([N+](=O)[O-])c1O; 0 (no)
S=C(N/N=C(/c1ccccc1)c1ccccn1)Nc1cccc(Cl)c1; 1 (yes)
O=C(CCc1ccc(O)cc1)NCCc1ccc(O)cc1; 0 (no)
Oc1nnnc2c1sc1ncccc12; 0 (no)

Fill in: this test's call for CC(=O)CC(=O)Nc1ccccc1[N+](=O)[O-] is ___
0 (no)

Fill in: this test's call for O=C(O)C1C2C=CC(C2)C1c1ccccc1 (stereo unspecified) is ___
0 (no)

Fill in: this test's call for CC(=O)Nc1ccc(/C=c2\sc3nnc(CCC(=O)Nc4ccccc4Cl)n3c2=O)cc1 is ___
0 (no)

Fill in: this test's call for Nc1nc(O)nc2snnc12 is ___
0 (no)

Fill in: this test's call for C=C1C(=O)OC2CC(C)C3C=CC(=O)C3CC12 (stereo unspecified) is ___
0 (no)

----------
- System: CCRF-CEM
- Experiment Notes: NCI tumour cell line growth inhibition, 48 h
Activity calls are given as the source filed them. No stated cut-off is given here; in the data, active = GI50 up to about 1.1 µM and inactive = higher. Non-standard residues stand in square brackets, D forms with d. Residues, ends and D or L forms follow the SMILES beside them. *: point of attachment. Phe(4-NO2) = N[CH](Cc1ccc([N+](=O)[O-])cc1)C(=O)O; Boc = CC(C)(C)OC(=O)*
Exercise: state measured GI50 for each of the compounds provided.

Example entries and their recorded answers appear below.
C1=Cc2nc1c(-c1ccncc1)c1ccc([n-]1)c(-c1ccncc1)c1nc(c(-c3ccncc3)c3ccc([n-]3)c2-c2ccncc2)C=C1.[Zn+2]; > 100 µM (inactive)
N#Cc1nc(Cc2cccs2)oc1N; 47.5 µM (inactive)
Cc1ccc(NC(=O)CC(=O)N2N=C(N(C)c3ccccc3)CC2c2ccccc2)cc1 (centres undefined); > 100 µM (inactive)
Cc1cc(N(CCC#N)CCC#N)ccc1/C=N/NC(=O)c1ccccc1; 23.1 µM (inactive)
CCN(CC)c1ccc2cc(C(=O)Nc3ccc4[nH]c(C(=O)N5C[C@@H](CCl)c6c5cc(OC(=O)Nc5ccccc5)c5[nH]cc(C)c65)cc4c3)oc2c1 [CARZELESIN]; 0.000168 µM (active)
CCCCCc1nnc(NS(=O)(=O)c2ccc(NC(=O)OCC(C)C)cc2)s1; 26.4 µM (inactive)
Cn1c(=O)c2ccc(-c3ccc(Br)cc3)nc2n(C)c1=O; > 100 µM (inactive)
CN1CCCOC(c2ccc(Cl)cc2)O1 (centres undefined); > 100 µM (inactive)

For each of the items listed, what is its GI50?
1. COC(=O)/C(=N\NC(=S)NN)C(C(=O)OC)C(=O)C(=O)Nc1cccc(C(F)(F)F)c1 (centres undefined)
2. Nc1c(C(=O)Nc2ccc([As](=O)(O)O)cc2)cnc2nnnn12

1. > 100 µM (inactive)
2. > 100 µM (inactive)

For each of the items listed, what is its GI50?
1. COc1ccc(OC)c2c1C=CC(Br)=CC2
2. O=C1C2C3C=CC(C2C(=O)N1COP(=O)(O)O)C1C2C(=O)N(COP(=O)(O)O)C(=O)C2C31 (centres undefined)
3. Cc1ccc(C(=O)C2CC3(CCC2(O)c2ccc(C)cc2)CC(=O)Nc2ccccc2C3=O)cc1 (centres undefined)
4. CC1=C(C(=O)CC(=O)C(=O)Nc2cc(C)ccc2C)Sc2ccccc2N1
5. COC(=O)CCC(NC(=O)OC(C)(C)C)C(=O)NC(Cc1ccc([N+](=O)[O-])cc1)C(=O)NC(CCC(=O)OC)C(=O)OC (centres undefined) (Boc-Glu(OMe)-[Phe(4-NO2)]-Glu(OMe)-OMe; configuration not given here)
6. Cc1cc(S(=O)(=O)NC2=Nc3ccccc3C(c3ccccc3)N2)c(S)cc1Cl (centres undefined)
7. CCOc1cc(NC(C)=O)ccc1C(=O)N/N=C/c1ccco1
8. CN(C)CC1CN/C(=N\C(=O)Nc2ccccc2)O1 (centres undefined)

1. 0.39 µM (active)
2. > 42.4 µM (inactive)
3. 5.66 µM (inactive)
4. 80.9 µM (inactive)
5. 12.3 µM (inactive)
6. 32.6 µM (inactive)
7. 39.3 µM (inactive)
8. > 100 µM (inactive)

Give me measured GI50, please, for this compound: c1cc2nnsc2s1
> 100 µM (inactive)
